Record form. Attribute: MOR EC50. Fill in for each entry.
- measured_on: µ-opioid receptor (MOR), Human-ORPM1 (human, UniProt P35372 1-400)
- Sequence (P35372 whole entry): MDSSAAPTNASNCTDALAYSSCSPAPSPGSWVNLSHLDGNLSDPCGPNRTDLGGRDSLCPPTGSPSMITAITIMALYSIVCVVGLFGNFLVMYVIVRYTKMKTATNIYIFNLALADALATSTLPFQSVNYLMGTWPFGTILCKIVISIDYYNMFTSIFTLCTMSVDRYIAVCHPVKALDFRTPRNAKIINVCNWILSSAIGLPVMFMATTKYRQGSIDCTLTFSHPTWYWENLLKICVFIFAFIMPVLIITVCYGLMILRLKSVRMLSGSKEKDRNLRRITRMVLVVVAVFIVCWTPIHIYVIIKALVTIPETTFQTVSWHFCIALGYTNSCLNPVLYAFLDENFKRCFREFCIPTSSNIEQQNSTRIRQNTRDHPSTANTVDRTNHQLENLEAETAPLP
- method: cell-based or functional assay
Square brackets hold non-standard residues; d marks the D form. Dmt = Cc1cc(O)cc(C)c1C[C@H](N)C(=O)O; NMeCha = CN[C@@H](CC1CCCCC1)C(=O)O; NMeI = CC[C@H](C)[C@H](NC)C(=O)O; β3hF = N[C@H](CC(=O)O)Cc1ccccc1

Reported MOR EC50 for H-[Dmt][dD]G[β3hF][NMeCha]-OH (SMILES Cc1cc(O)cc(C)c1C[C@H](N)C(=O)N[C@H](CC(=O)O)C(=O)NCC(=O)N[C@H](CC(=O)N(C)[C@@H](CC1CCCCC1)C(=O)O)Cc1ccccc1) [H-DMT-(D)Asp-G-bhF-N(Me)-Cha-OH] : what is it? ≤ 1 nM

Which MOR EC50 is listed for H-[Dmt][dE]G[β3hF][NMeI]-OH (SMILES CC[C@H](C)[C@@H](C(=O)O)N(C)C(=O)C[C@H](Cc1ccccc1)NC(=O)CNC(=O)[C@@H](CCC(=O)O)NC(=O)[C@@H](N)Cc1c(C)cc(O)cc1C) [H-DMT-(D)Glu-G-bhF-N(Me)-Ile-OH] ? ≤ 10 nM

Data provenance is patent US20190076400A1.
